Values were extracted from patent US8415380B2.

quantity-kind: melting point (°C)

> print(dat)
                                   compound  unit.info  test.value
1  NS(=O)(=O)c1cccc(-c2cn(-c3nc(-c4ccc(Cl)s4)cc(C(F)(F)F)n3)cn2)c1 [Example 1]         °C         189
2  NS(=O)(=O)c1cccc(-c2cc(-c3nc(-c4ccc(C(F)(F)F)nc4)cc(C(F)F)n3)ccn2)c1 [Example 16]         °C       264.5
3  NS(=O)(=O)c1cccc(-c2cccc(-c3nc(-c4ccc(C(F)(F)F)nc4)cc(C(F)F)n3)c2)c1 [Example 15]         °C         222
4  Cc1cc(-c2ccc(C(F)(F)F)nc2)nc(-n2cnc(-c3ccc(N)nc3)c2)n1 [Example 20]         °C         220

* * *

quantity-kind: melting point (°C)

> print(dat)
                  compound.structure.string  test.value
1  Cc1cc(-c2ccc(C(F)(F)F)nc2)nc(-c2cccc(-c3cccc(S(N)(=O)=O)c3)c2)n1         220
2  NS(=O)(=O)c1ccc(-c2cc(-c3nc(-c4ccc(C(F)(F)F)nc4)cc(C(F)(F)F)n3)ccn2)s1       262.5
3  NS(=O)(=O)c1ccc(-c2cccc(-c3nc(-c4ccc(Cl)s4)cc(C(F)(F)F)n3)c2)s1         233
4  Nc1ccc(-c2cccc(-c3nc(-c4ccc(C(F)(F)F)nc4)cc(C(F)(F)F)n3)c2)cn1         244
5  NS(=O)(=O)c1ccc(-c2cccc(-c3nc(-c4ccc(C(F)(F)F)nc4)cc(C(F)(F)F)n3)c2)s1       250.5
6  Nc1ccc(-c2cc(-c3nc(-c4ccc(C(F)(F)F)nc4)cc(C(F)(F)F)n3)ccn2)cn1       261.5

* * *

- tested-system: rat mGlu2 receptor (Rattus norvegicus)
- Sequence (P31421 19-872): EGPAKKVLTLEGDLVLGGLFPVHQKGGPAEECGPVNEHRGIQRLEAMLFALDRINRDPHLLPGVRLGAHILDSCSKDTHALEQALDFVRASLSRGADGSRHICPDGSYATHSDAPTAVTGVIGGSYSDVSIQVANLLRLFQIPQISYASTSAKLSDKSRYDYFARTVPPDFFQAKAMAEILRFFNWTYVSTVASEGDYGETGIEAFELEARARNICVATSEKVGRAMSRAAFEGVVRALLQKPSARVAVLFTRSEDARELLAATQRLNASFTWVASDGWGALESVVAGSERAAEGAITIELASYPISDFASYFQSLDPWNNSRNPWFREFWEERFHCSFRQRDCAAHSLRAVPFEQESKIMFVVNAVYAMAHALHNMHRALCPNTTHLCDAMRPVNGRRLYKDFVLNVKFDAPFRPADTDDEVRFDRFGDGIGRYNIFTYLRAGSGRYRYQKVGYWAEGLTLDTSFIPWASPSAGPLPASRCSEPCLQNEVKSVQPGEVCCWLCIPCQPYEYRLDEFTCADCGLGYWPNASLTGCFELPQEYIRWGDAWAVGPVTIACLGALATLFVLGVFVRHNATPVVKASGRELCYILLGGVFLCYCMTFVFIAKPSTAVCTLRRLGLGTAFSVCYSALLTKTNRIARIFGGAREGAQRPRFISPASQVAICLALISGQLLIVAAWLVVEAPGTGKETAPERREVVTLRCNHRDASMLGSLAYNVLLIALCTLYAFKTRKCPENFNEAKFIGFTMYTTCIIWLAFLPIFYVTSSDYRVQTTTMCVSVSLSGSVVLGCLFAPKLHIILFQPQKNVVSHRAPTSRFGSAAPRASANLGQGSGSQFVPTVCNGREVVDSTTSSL
pKi: −log10 of the molar value.
quantity-kind: pKi

> print(dat)
                  compound.structure.string  quantity.kind  test.value
1  Cc1cc(-c2ccc(C(F)(F)F)cn2)nc(-c2cccc(-c3cccc(S(=O)(=O)NC(C)(C)C)c3)n2)n1            pKi        6.98

1: Nc1ccc(-c2cccc(-c3nc(-c4ccc(Cl)s4)cc(C(F)(F)F)n3)c2)cn1
2: Nc1ccc(-c2cccc(-c3nc(-c4ccc(C(F)(F)F)nc4)cc(C(F)(F)F)n3)c2)cn1
3: NS(=O)(=O)c1ccc(-c2cccc(-c3nc(-c4ccc(C(F)(F)F)nc4)cc(C(F)(F)F)n3)c2)s1
4: Cc1cc(-c2ccc(C(F)(F)F)nc2)nc(-n2cnc(-c3ccc(N)nc3)c2)n1
Exam item: Ordering criterion: pKi; begin with the maximum. To answer, write out the labels according to the requested order.
Marked response: 2, 3, 4, 1

* * *

quantity-kind: melting point (°C)

> print(dat)
                                    compound  quantity.kind  unit.info  test.value
 1  NS(=O)(=O)c1cccc(-c2cccc(-c3nc(-c4ccc(Cl)s4)cc(C(F)(F)F)n3)c2)c1 [Example 4]  melting point         °C       226.5
 2  Cc1cc(-c2ccc(C(F)(F)F)nc2)nc(-c2cccc(-c3cccc(S(N)(=O)=O)c3)n2)n1 [Example 28]  melting point         °C         254
 3  Cc1cc(-c2ccc(C(F)(F)F)nc2)nc(-c2ccnc(-c3ccc(S(N)(=O)=O)s3)c2)n1 [Example 22]  melting point         °C         289
 4  Nc1ccc(-c2cn(-c3nc(-c4ccc(C(F)(F)F)nc4)cc(C(F)(F)F)n3)cn2)cn1 [Example 13]  melting point         °C         259
 5  Cc1cc(-c2ccc(C(F)(F)F)nc2)nc(-c2cccc(-c3ccc(S(N)(=O)=O)s3)c2)n1 [Example 24]  melting point         °C       237.5
 6  NS(=O)(=O)c1cccc(-c2cn(-c3nc(-c4ccc(C(F)(F)F)nc4)cc(C(F)F)n3)cn2)c1 [Example 19]  melting point         °C       219.5
 7  NS(=O)(=O)c1ccc(-c2cc(-c3nc(-c4ccc(C(F)(F)F)nc4)cc(C(F)F)n3)ccn2)s1 [Example 17]  melting point         °C       269.5
 8  NS(=O)(=O)c1ccc(-c2cccc(-c3nc(-c4ccc(C(F)(F)F)nc4)cc(C(F)F)n3)c2)s1 [Example 18]  melting point         °C       245.5
 9  NS(=O)(=O)c1cccc(-c2cccc(-c3nc(-c4ccc(C(F)(F)F)nc4)cc(C(F)(F)F)n3)c2)c1 [Example 2]  melting point         °C         211
10  NS(=O)(=O)c1cccc(-c2cc(-c3nc(-c4ccc(C(F)(F)F)nc4)cc(C(F)(F)F)n3)ccn2)c1 [Example 9]  melting point         °C         258
11  Nc1ncc(-c2cccc(-c3nc(-c4ccc(Cl)s4)cc(C(F)(F)F)n3)c2)cn1 [Example 6]  melting point         °C         228
12  Nc1ccc(-c2cn(-c3nc(-c4ccc(C(F)(F)F)nc4)cc(C(F)F)n3)cn2)cn1 [Example 14]  melting point         °C         258
